System: Swiss mice
Experiment: Analgesic activity (Hendershot et al.)
Assay type: in vivo
Settings: oral 3 to 30 mg/Kg in carboxymethylcellulose, natural product = 1.0
Item-by-item account of analgesic properties (II), potency ratio versus natural reference product
Give the value as a plain number.

Before answering, review these 4 worked examples.
Inquiry: Missing value: analgesic properties (II), potency ratio versus natural reference product, Swiss mice, entry O=C(c1ccccc1)c1ccc2n1CCC2C(=O)OCCOCCO[N+](=O)[O-] (centres unmarked) [Example 1f] . Fill in?
Reply text: 1.0

Inquiry: Lab request: please report analgesic properties (II), potency ratio versus natural reference product under test system Swiss mice for CC(C(=O)O)c1ccc(-c2ccccc2)c(F)c1 (centres unmarked) [FLURBIPROFEN, reference compound]
Reply text: 1.0

Inquiry: Form entry - test system: Swiss mice; read-out: analgesic properties (II), potency ratio versus natural reference product; molecule: COc1ccc2cc(C(C)C(=O)OCCOCCO[N+](=O)[O-])ccc2c1 (centres unmarked) [Example 1h]
Reply text: 1.3

Inquiry: Checklist item: analgesic properties (II), potency ratio versus natural reference product tested on Swiss mice, entry CC(=O)Oc1ccccc1C(=O)OCCOCCO[N+](=O)[O-] [Example 1a] , value?
Reply text: 1.1

Next item in the queue.
Inquiry: Missing value: analgesic properties (II), potency ratio versus natural reference product, Swiss mice, entry CC(C)Cc1ccc(C(C)C(=O)OCCOCCO[N+](=O)[O-])cc1 (centres unmarked) [Example 1d] . Fill in?
Reply text: 1.1

Hey, just so you know, these numbers are from patent US5861426A.
